Ref: patent US20240343815A1

Target: T1, recombinant human IL4Rα-his protein (human, UniProt P24394 26-232, biotinylated in the capture ELISA and the benchmark blocking ELISA)
T1 construct: also called biotinylated human IL4Rα-his protein
Assay: SPR Biacore, mAb captured, IL4Rα-his analyte
PARAMETER_MEASURED: Dissociation (%)
Give just the number in %; leave the unit off.

Requested field: Dissociation (%). Item: huC2C1A1A1-V11 (antibody, human IgG4 S228P, kappa, V domains shown, Humanized IgG4/kappa) VH: EVQLVESGGGLVQPGGSLRLSCAASGFTFSTYGMSWVRQAPGKGLVLVATINSNGGSTSYPDSVKGRFTISRDNAKNTLYLQMNSLRAEDTAVYYCARFFRFRNAMDYWGQGTLVTVSS VL: DIQMTQSPSSLSASVGDRVTITCRTSENIYSYLAWYQQKPGKAPKFLVYNAKTLAEGVPSRFSGSGSGTDFTLTISSLQPEDFATYYCQHYYGPPTWTFGQGTKVEIKR -0.92
